TEST_DESCRIPTION: chemical genetic growth profiling, strain panel (AID 1159580);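 further: tested at 20 µM; growth read once vehicle control cultures reached saturation at 30 °C; 1 = growth at the plate median or of vehicle wells; lower values mean less growth of the strain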
CONDITION_CONTEXT: S. cerevisiae deletion strains, growth OD, locus YMR231W, strain pep5, stronger effect = lower value
Among all 5,500 compounds or so, about 2,000 (36%) were called active. Another 18% or so got no clear call; they are omitted. This is one part of the list.
Rule: normalized growth below 1 gives class 1, anything at or above gives class 0.

[[record]]
molecule = "CC(C)c1c(O)c(-c2cc3c(c(C(C)C)c2O)CCC2C(C)(C)CCC[C@]32C)cc2c1CCC1C(C)(C)CCC[C@]21C (some centres not stated)"
category = "class 0"

[[record]]
molecule = "O=C(O[C@@H]1Cc2c(O)cc(O)cc2O[C@@H]1c1cc(O)c(=O)c2c(O)c(O)cc([C@H]3Oc4cc(O)cc(O)c4C[C@H]3O)c2c1)c1cc(O)c(O)c(O)c1"
category = "class 1"

[[record]]
molecule = "O=C(O[C@@H]1Cc2c(O)cc(O)cc2O[C@@H]1c1cc(O)c(=O)c2c(O)c(O)cc([C@H]3Oc4cc(O)cc(O)c4C[C@H]3OC(=O)c3cc(O)c(O)c(O)c3)c2c1)c1cc(O)c(O)c(O)c1"
category = "class 1"


----------
TEST_DESCRIPTION: chemical genetic growth profiling, strain panel (AID 1159580);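 further: tested at 20 µM; growth read once vehicle control cultures reached saturation at 30 °C; 1 = growth at the plate median or of vehicle wells; lower values mean less growth of the strain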
CONDITION_CONTEXT: S. cerevisiae deletion strains, growth OD, locus YHR079C, strain IRE1 (second series), stronger effect = lower value
Out of some 5,500 compounds screened, about 2,000 (36%) were called active. About 18% were inconclusive and are not listed. The list shows a part of the results.
MEASURE: normalized growth

[[record]]
molecule = "C=C(C)[C@H]1COc2cc3oc(=O)ccc3cc2O1"
measure = "normalized growth"
result = 0.967

[[record]]
molecule = "CC(C)[N+](C)(CCC(C(N)=O)(c1ccccc1)c1ccccc1)C(C)C"
measure = "normalized growth"
result = 0.998

[[record]]
molecule = "O=C(OC1Cc2c(O)cc(O)cc2OC1c1cc(=O)c(O)c2c(O)c(O)cc(C3Oc4cc(O)cc(O)c4CC3O)c2c1)c1cc(O)c(O)c(O)c1 (configuration not stated)"
measure = "normalized growth"
result = 0.864

[[record]]
molecule = "CCCCOc1cc(C(=O)NCCN(CC)CC)c2ccccc2n1"
measure = "normalized growth"
result = 0.982

[[record]]
molecule = "CC1O[C@@H](Oc2c(-c3ccc(O)c(O)c3)oc3cc(O)cc(O)c3c2=O)[C@H](O)[C@H](O)[C@H]1O (some centres not stated)"
measure = "normalized growth"
result = 0.989

[[record]]
molecule = "O=C(O[C@@H]1Cc2c(O)cc(O)cc2O[C@@H]1c1cc(O)c(=O)c2c(O)c(O)cc([C@H]3Oc4cc(O)cc(O)c4C[C@H]3OC(=O)c3cc(O)c(O)c(O)c3)c2c1)c1cc(O)c(O)c(O)c1"
measure = "normalized growth"
result = 1.01

[[record]]
molecule = "CC(C)C1COc2cc3oc(=O)ccc3cc2O1 (configuration not stated)"
measure = "normalized growth"
result = 0.89

[[record]]
molecule = "O=C(O[C@@H]1Cc2c(O)cc(O)cc2O[C@@H]1c1cc(O)c(=O)c2c(O)c(O)cc([C@H]3Oc4cc(O)cc(O)c4C[C@H]3O)c2c1)c1cc(O)c(O)c(O)c1"
measure = "normalized growth"
result = 0.946

[[record]]
molecule = "COc1ccc2c3c1OC1C(O)CC=C4C(C2)N(C)CCC431 (configuration not stated)"
measure = "normalized growth"
result = 1.02

[[record]]
molecule = "COc1ccc(-c2cc(=O)c3c(O)cc(O[C@H]4O[C@H](CO[C@@H]5O[C@@H](C)[C@H](O)[C@@H](O)[C@H]5O)[C@@H](O)[C@H](O)[C@H]4O)cc3o2)cc1"
measure = "normalized growth"
result = 1.01

[[record]]
molecule = "COc1ccc2ccc(=O)oc2c1"
measure = "normalized growth"
result = 1.01

[[record]]
molecule = "COc1ccc(-c2oc3cc(O[C@H]4O[C@H](CO)[C@@H](O)[C@H](O)[C@H]4O)c(OC)c(O)c3c(=O)c2OC)cc1O"
measure = "normalized growth"
result = 0.99

[[record]]
molecule = "O=c1cc(-c2ccc(O)cc2)oc2cc(O[C@@H]3O[C@H](CO)[C@@H](O)[C@H](O)[C@H]3O)cc(O)c12"
measure = "normalized growth"
result = 0.971

[[record]]
molecule = "O=c1c(O)c(-c2cc(O)c(O)c(O)c2)oc2cc(O)cc(O)c12"
measure = "normalized growth"
result = 1.01

[[record]]
molecule = "COc1ccc(-c2cc(=O)c3c(O)cc(O[C@@H]4O[C@H](CO[C@H]5O[C@H](C)[C@@H](O)[C@H](O)[C@@H]5O)[C@@H](O)[C@H](O)[C@H]4O)cc3o2)cc1O"
measure = "normalized growth"
result = 0.991

[[record]]
molecule = "CC(C)N(CCC(C(N)=O)(c1ccccc1)c1ccccn1)C(C)C (configuration not stated)"
measure = "normalized growth"
result = 0.995

[[record]]
molecule = "O=C1C=C2C(=CCOC2O)O1 (configuration not stated)"
measure = "normalized growth"
result = 0.858


The reported measurements were obtained from PubChem BioAssay AID1159580.
